Target: ALK tyrosine kinase receptor (Homo sapiens, UniProt Q9UM73, T1151M)
Sequence (Q9UM73 19-1620 T1151M limits assumed): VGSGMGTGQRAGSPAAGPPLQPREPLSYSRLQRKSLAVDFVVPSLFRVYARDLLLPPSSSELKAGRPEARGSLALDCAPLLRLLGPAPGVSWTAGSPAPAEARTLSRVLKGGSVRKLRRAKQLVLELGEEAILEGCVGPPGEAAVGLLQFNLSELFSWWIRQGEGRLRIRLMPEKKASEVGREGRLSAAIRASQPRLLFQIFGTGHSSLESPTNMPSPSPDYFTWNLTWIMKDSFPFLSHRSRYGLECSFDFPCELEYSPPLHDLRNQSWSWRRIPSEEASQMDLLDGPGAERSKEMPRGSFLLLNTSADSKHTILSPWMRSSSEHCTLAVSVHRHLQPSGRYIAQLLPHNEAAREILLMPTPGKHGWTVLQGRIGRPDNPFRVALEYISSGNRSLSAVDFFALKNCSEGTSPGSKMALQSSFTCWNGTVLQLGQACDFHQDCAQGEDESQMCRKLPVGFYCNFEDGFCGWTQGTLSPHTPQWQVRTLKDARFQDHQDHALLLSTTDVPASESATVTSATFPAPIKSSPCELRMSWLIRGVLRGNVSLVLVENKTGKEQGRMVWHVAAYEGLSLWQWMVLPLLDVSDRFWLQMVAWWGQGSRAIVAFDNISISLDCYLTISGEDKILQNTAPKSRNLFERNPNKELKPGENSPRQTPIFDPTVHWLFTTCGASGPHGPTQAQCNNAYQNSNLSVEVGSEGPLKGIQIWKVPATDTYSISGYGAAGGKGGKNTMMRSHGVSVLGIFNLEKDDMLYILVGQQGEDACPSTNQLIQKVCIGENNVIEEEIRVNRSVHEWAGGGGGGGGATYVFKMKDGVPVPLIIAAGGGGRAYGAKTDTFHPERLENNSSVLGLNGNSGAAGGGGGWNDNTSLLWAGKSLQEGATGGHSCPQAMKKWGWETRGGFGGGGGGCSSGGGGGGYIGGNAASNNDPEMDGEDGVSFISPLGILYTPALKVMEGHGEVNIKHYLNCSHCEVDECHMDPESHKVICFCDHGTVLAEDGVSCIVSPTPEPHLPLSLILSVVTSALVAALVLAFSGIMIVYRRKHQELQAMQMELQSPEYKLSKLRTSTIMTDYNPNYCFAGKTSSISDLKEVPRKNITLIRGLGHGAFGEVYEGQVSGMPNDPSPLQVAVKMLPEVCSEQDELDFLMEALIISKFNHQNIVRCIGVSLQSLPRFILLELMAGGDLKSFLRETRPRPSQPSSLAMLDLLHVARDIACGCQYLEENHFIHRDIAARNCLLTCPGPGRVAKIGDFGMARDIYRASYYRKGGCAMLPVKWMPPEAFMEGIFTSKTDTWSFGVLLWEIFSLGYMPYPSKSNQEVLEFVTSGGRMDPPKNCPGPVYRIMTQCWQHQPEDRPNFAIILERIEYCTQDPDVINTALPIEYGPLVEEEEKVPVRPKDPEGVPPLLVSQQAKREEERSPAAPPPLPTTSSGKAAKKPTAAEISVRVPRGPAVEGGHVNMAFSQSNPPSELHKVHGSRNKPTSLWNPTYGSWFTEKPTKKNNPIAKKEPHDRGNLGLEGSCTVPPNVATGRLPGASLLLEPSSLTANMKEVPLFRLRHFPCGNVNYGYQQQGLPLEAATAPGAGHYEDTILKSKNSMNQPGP
Reported metric: pIC50
Scale: pIC50 equals -log10([C]), with [C] in mol/L.

State its pIC50: COc1ccc(NC(=O)CNC(=O)c2cc(C(C)C)c(O)cc2O)cc1Nc1ncc(Cl)c(Nc2ccccc2S(=O)(=O)C(C)C)n1
8.66

----------
Target: ALK tyrosine kinase receptor (Homo sapiens, UniProt Q9UM73, R1275Q)
Sequence (Q9UM73 19-1620 R1275Q limits assumed): as the sequence (Q9UM73 19-1620 T1151M limits assumed) above, with M1133T, R1257Q counted along it
Reported metric: IC50 (nM)
Number only, in nM; omit the unit.

Please indicate recorded IC50 of COc1ccc(NC(=O)CNC(=O)c2cc(C(C)C)c(O)cc2O)cc1Nc1ncc(Cl)c(Nc2ccccc2S(=O)(=O)C(C)C)n1 measured with ALK tyrosine kinase receptor (Homo sapiens, UniProt Q9UM73, R1275Q).
2.7

meta.source: ChEMBL document CHEMBL4145454
